# System: OVCAR-5
# test_description: NCI tumour cell line growth inhibition, 48 h
Active and inactive are the calls of the source. No stated cut-off is given here; in the data, active = GI50 up to about 1.1 µM and inactive = higher.
Answer with one of the outcomes T (active), F (inactive)

Examples from the recorded data:
O=C(CCC(=O)Nc1ccc(Cl)cc1)CC(=O)c1ccc2ccccc2c1 :: F
Cc1ccc(C2=NO[C@@H]3C(=O)N(c4ccc(Cc5ccc(N6C(=O)[C@H]7C(c8ccc(C)cc8)=NO[C@H]7C6=O)cc5)cc4)C(=O)[C@H]23)cc1 :: F
O=C(/C=C1/Nc2ccc([N+](=O)[O-])cc2N/C1=C/C(=O)c1ccccc1)c1ccccc1 :: F

Give the logged outcome of this assay for the following molecule: CC(C)CC(NC(=O)C(C)(CI)Cc1ccccc1)C(=O)Nc1ccccc1 (stereo not given)
F

Give the logged outcome of this assay for the following molecule: CCCCCCCCCCCCCCCCCCNc1ccn(C2OC(COP(=O)(O)OCC3OC(n4cc(F)c(NCCCCCCCCCCCCCCCCCC)nc4=O)CC3O)C(O)C2O)c(=O)n1 (stereo not given)
F

Give the logged outcome of this assay for the following molecule: O=C(O)/C=C/C=C/c1ccc2c(c1)OCO2 [PIPERIC ACID]
F

Give the logged outcome of this assay for the following molecule: O=C1C(Cl)C(c2cccc([N+](=O)[O-])c2)N1n1cnc2ccccc2c1=O (stereo not given)
F

Give the logged outcome of this assay for the following molecule: COC(=O)/C(C#N)=C1\CCC(O)N1 (stereo not given)
F

Give the logged outcome of this assay for the following molecule: COc1ccc(SC(C)(SC)c2ccccn2)c(OC)n1 (stereo not given)
F

Give the logged outcome of this assay for the following molecule: CC(C)=CC(=O)CC(=O)C(=O)NCCNC(=O)C(=O)CC(=O)C=C(C)C
F

Give the logged outcome of this assay for the following molecule: Clc1ccc(COC(Cn2ccnc2)c2ccc(Cl)cc2Cl)c(Cl)c1 (stereo not given) [MICONAZOLE NITRATE]
F

Give the logged outcome of this assay for the following molecule: CC(C)(C)c1ccccc1N1C(=O)c2ccc3c4c(ccc(c24)C1=O)N(c1ccccc1C(C)(C)C)C3=O
F

Give the logged outcome of this assay for the following molecule: O=[N+]([O-])c1c(F)c(F)c2c(c1F)Nc1ccccc1S2
F

Give the logged outcome of this assay for the following molecule: CCC(C)N1CN(c2ccccc2)C2(CCN(CCCC(=O)c3ccc(F)cc3)CC2)C1=O (stereo not given)
T

Give the logged outcome of this assay for the following molecule: Clc1cc(-c2csc(Cl)c2)cs1
F

###

# Tested on: RXF 393
# test_description: NCI tumour cell line growth inhibition, 48 h
Active and inactive are the calls of the source. No stated cut-off is given here; in the data, active = GI50 up to about 1.1 µM and inactive = higher.
endpoint_label: GI50

Reference set (4 entries):
O=c1cc(N2CCNCC2)nc2ccccn12 :: > 100 µM (inactive)
COc1cc(C(=O)O[C@H]2CCC3CCC2N3C)cc(OC)c1OC (stereo not given in full) :: > 100 µM (inactive)
CC(C)(C)OC(=O)NC1CC2(C=C(Br)C(=O)C(Br)=C2)OC1=O (stereo not given) :: 3.58 µM (inactive)
CCCCCCCCCCCCCCCCCCOC(COP(=O)(O)OCC1OC(n2cc(F)c(=O)[nH]c2=O)CC1O)COP(=O)(O)OCC1OC(n2ccc(N)nc2=O)C(O)C1O (stereo not given) :: 16.4 µM (inactive)

Name the reported GI50 value associated with the molecule Cc1cnoc1NS(=O)(=O)c1ccc(Nc2nnc(/C=C/c3c(O)ccc4ccccc34)c(=O)n2N)cc1
24 µM (inactive)

###

In this section we review reported GI50 values for a set of molecules.
# Tested on: UO-31
# test_description: NCI tumour cell line growth inhibition, 48 h
The source made the active and inactive calls. Cut-off read from the data, not from the text of the source: active = GI50 up to about 1.1 µM and inactive = higher.

Nc1nc(=S)n(-c2ccc(Cl)cc2)c2nc3ccccc3cc12 :: 33.6 µM (inactive)
C1OC1CN1CCN(CC2CO2)CC1 (stereo not drawn) :: 97.5 µM (inactive)

Shifting focus to the molecule that follows.
Name the reported GI50 value associated with the molecule Clc1ncc(Cl)c(Cl)n1
3.17 µM (inactive)

###

In this section we review reported GI50 values for a set of compounds.
# Test system: HOP-62
# test_description: NCI tumour cell line growth inhibition, 48 h
The source made the active and inactive calls. Cut-off read from the data, not from the text of the source: active = GI50 up to about 1.1 µM and inactive = higher.

Name the reported GI50 value associated with the compound CN1C(=O)N/C(=C\c2ccc(S(=O)(=O)N/N=C\C(O)C(O)C(O)CO)cc2)C1=O (centres undefined)
> 100 µM (inactive)

Name the reported GI50 value associated with the compound O=C(NNC(=S)NCc1ccccc1)c1csc(NC(=S)NC2CCCCC2)n1
64.1 µM (inactive)

Name the reported GI50 value associated with the compound CC(=O)C1=C(O)C2C3c4c[nH]c5cccc(c45)CC3C(C)(C)N2C1=O (centres undefined)
6.46 µM (inactive)

Name the reported GI50 value associated with the compound O=C1CCC2=C(CCC2)N1CCc1ccc2c(c1)OCO2
94.6 µM (inactive)

###

# Test system: SF-268
# test_description: NCI tumour cell line growth inhibition, 48 h
Activity calls are given as the source filed them. No stated cut-off is given here; in the data, active = GI50 up to about 1.1 µM and inactive = higher.
endpoint_label: GI50

CC(=O)/C(=C\Nc1c(C)n(C)n(C)c1=O)C(=O)c1ccccc1 :: > 50 µM (inactive)
CCOC(=O)N(c1ccccc1)c1cc(=O)n2ccccc2n1 :: > 100 µM (inactive)
CC(=O)O[C@H]1C(=O)[C@@]2(C)C(C(OC(=O)c3ccccc3)[C@]3(O)CC(OC(=O)C(O)C(NC(=O)c4ccccc4)c4ccc(F)cc4)C(C)=C1C3(C)C)[C@]1(OC(C)=O)CO[C@@H]1C[C@@H]2O (stereo partly drawn) :: < 0.001 µM (active)
COc1cc(C(=O)O[C@H]2CCC3CCC2N3C)cc(OC)c1OC (stereo partly drawn) :: > 100 µM (inactive)
COc1cc2ccnc([C@@H](OC(=O)c3ccccc3)c3ccc(OC)c(OC)c3OC)c2cc1OC :: 52 µM (inactive)

Shifting focus to the compound that follows.
Name the reported GI50 value associated with the compound COc1cc2c(c(OC)c1OC)-c1ccc(SC)c(=O)cc1[C@@H](NCc1ccc(F)cc1)CC2
< 0.0075 µM (active)

###

# Tested on: HCT-15
In this section we review reported GI50 values for a set of molecules.

Reference set (2 entries):
CC(C)=CC(=O)CC(=O)C(=O)NCCNC(=O)C(=O)CC(=O)C=C(C)C :: > 50 µM
NCC(=O)Nc1ccccc1 :: > 100 µM

Form entry - test system: HCT-15; read-out: GI50; molecule: Cc1ccc(S(=O)(=O)OC2CCN(C)CC2)cc1
> 100 µM

Form entry - test system: HCT-15; read-out: GI50; molecule: Cc1ccc(C2=NO[C@@H]3C(=O)N(c4ccc(Cc5ccc(N6C(=O)[C@H]7C(c8ccc(C)cc8)=NO[C@H]7C6=O)cc5)cc4)C(=O)[C@H]23)cc1
> 100 µM

###

# Test system: PC-3
# test_description: NCI tumour cell line growth inhibition, 48 h
Activity calls are given as the source filed them. Rule as the data show it: active = GI50 up to about 1.1 µM and inactive = higher.
endpoint_label: GI50

Name the reported GI50 value associated with the compound O=C(/C(=C\C(=O)c1cccs1)c1ccsc1)c1ccc(Br)cc1
> 100 µM (inactive)

Name the reported GI50 value associated with the compound O=C1C=CC(=O)C(CNc2ccc(C(=O)OC34CC5CC(CC(C5)C3)C4)cc2)=C1Br
4.76 µM (inactive)

Name the reported GI50 value associated with the compound O=c1[nH]c2nccn2c(Cl)c1Br
50.2 µM (inactive)

Name the reported GI50 value associated with the compound C=C(CCC(=O)N(CCc1c[nH]c2ccccc12)C(=O)c1ccccc1CSCC)C(=O)OC
23.2 µM (inactive)

###

# System: HOP-18
# test_description: NCI tumour cell line growth inhibition, 48 h
Calls of active or inactive are those of the source. Cut-off read from the data, not from the text of the source: active = GI50 up to about 1.1 µM and inactive = higher.
endpoint_label: GI50

Reference set (3 entries):
CC(=O)C1=C(O)C2C3c4c[nH]c5cccc(c45)CC3C(C)(C)N2C1=O (centres undefined) :: 21.2 µM (inactive)
C=C1C(=O)O[C@@H]2[C@H](O)[C@@H](C)[C@@H]3C=CC(=O)[C@@]3(C)[C@H](OC(=O)C=C(C)C)[C@H]12 :: 1.67 µM (inactive)
Nc1ccc2n[se]nc2c1 :: > 100 µM (inactive)

Shifting focus to the compound that follows.
Name the reported GI50 value associated with the compound COc1cc(C2c3cc4c(cc3[C@@H](NCCCN3CCCC3=O)C3COC(=O)[C@H]23)OCO4)cc(OC)c1O (some centres undefined)
> 17.5 µM (inactive)

###

# Test system: HOP-92
# test_description: NCI tumour cell line growth inhibition, 48 h
Calls of active or inactive are those of the source. No stated cut-off is given here; in the data, active = GI50 up to about 1.1 µM and inactive = higher.
endpoint_label: GI50

COC(=O)C(Cc1ccccc1)NC(=O)CSc1nnc(COc2ccc(Cl)cc2)n1-c1ccccc1 (stereo not given) :: 26.4 µM (inactive)
C=C(CCC(=O)N(CCc1c[nH]c2ccccc12)C(=O)c1ccccc1CSCC)C(=O)OC :: 40.6 µM (inactive)
O=C1NC(N2CCOCC2)=N/C1=C\c1cccs1 :: > 100 µM (inactive)
CCCc1c2c3ccccc3nc-2nc2ccccn12 :: 36.5 µM (inactive)
Cc1c(-c2ccccc2)oc(=O)c2ccccc12 :: 11.8 µM (inactive)
CCOC(=O)c1nc2cc(F)c(F)cc2nc1NCc1cc(OC)c(OC)c(OC)c1 :: 50.7 µM (inactive)

Name the reported GI50 value associated with the compound COc1cc2ncnc(Nc3cccc(Cl)c3)c2cc1OC [TYRPHOSTIN AG-1478]
5.19 µM (inactive)

Name the reported GI50 value associated with the compound Nc1ccn(CCO)c(=O)n1
> 100 µM (inactive)

Name the reported GI50 value associated with the compound CC(=O)C1=C(C)NC(=C(C#N)C#N)C(C#N)=C1
> 100 µM (inactive)

Name the reported GI50 value associated with the compound O=C1CCSc2nc(-c3ccc4c(c3)OCO4)nn21
> 10 µM (inactive)
